species: Mus musculus; assay: The compound was tested for Anticonvulsant activity against AMPA induced seizures in DBA/2 mice in tonic phase; assay type: functional
measured_property: ED50 (µmol/kg)
Give the value in µmol/kg but do not write µmol/kg after it.

Consider the reported ED50 for these compounds:
# line_notation, ED50 / µmol/kg
rows = [
    ("Nc1ccc(C2=NN=C(S)Cc3cc4c(cc32)OCO4)cc1", 11.5),
    ("Nc1cccc(C2=NNC(=O)Cc3cc4c(cc32)OCO4)c1", 23.8),
]

Sample `CNC(=O)N1N=C(c2ccc(N)cc2)c2cc3c(cc2CC1=O)OCO3` — what was its ED50?
10.3

Sample `Nc1cccc(C2=NN=C(S)Cc3cc4c(cc32)OCO4)c1` — what was its ED50?
26.2

Sample `Nc1ccc(C2=NNC(=O)Cc3cc4c(cc32)OCO4)cc1` — what was its ED50?
28.5

* * *

species: Mus musculus; assay: The compound was tested for Anticonvulsant activity against KA induced seizures in DBA/2 mice.; format: functional
measured_property: ED50 (µmol/kg)
Give the value in µmol/kg but do not write µmol/kg after it.

# line_notation, reported_measurement
data = [
    ("CNC(=O)N1N=C(c2ccc(N)cc2)c2cc3c(cc2CC1=O)OCO3", 8.61),
    ("CC1=NN=C(c2ccc(N)cc2)c2cc3c(cc2C1)OCO3", 27.8),
    ("Nc1ccc(C2=NN=C(S)Cc3cc4c(cc32)OCO4)cc1", 15.6),
    ("Nc1ccc(C2=NNC(=O)Cc3cc4c(cc32)OCO4)cc1", 19.6),
    ("Nc1cccc(C2=NN=C(S)Cc3cc4c(cc32)OCO4)c1", 18.6),
]

// moving on: another record for ED50
Sample `Nc1cccc(C2=NNC(=O)Cc3cc4c(cc32)OCO4)c1` — what was its ED50?
23.2
